# MEASUREMENT TARGET: CXCR3 (Homo sapiens, UniProt P49682)
# Construct: expressed in transfected cells
# Sequence (P49682 whole entry): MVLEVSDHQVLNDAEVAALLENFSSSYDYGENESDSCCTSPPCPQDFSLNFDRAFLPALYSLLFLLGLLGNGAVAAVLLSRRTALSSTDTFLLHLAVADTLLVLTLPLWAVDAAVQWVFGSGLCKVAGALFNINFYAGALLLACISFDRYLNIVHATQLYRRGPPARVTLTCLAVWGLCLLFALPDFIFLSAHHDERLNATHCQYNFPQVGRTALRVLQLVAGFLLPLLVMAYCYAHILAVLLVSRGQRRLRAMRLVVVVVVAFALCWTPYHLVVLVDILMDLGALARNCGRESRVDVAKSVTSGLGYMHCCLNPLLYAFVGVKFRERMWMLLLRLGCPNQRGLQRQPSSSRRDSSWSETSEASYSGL
# PROTOCOL NOTES: CXCR3/IP-10 radioligand binding (125I-IP-10 competition, CXCR3.L1/2 cell membranes)
# RECORDED CONDITIONS: Table 5; test compound 10 μmol/L; 125I-labeled IP-10 binding to CXCR3.L1/2 transfectant cell membrane
# Method: The activity of the compounds of the present invention can be assessed using a suitable assay, such as a receptor binding assay, a chemotaxis assays, an extracellular acidification assay or a calcium flux assay (see, for example, Hesselgesser et al., J. Biol. Chem. 273(25):15687-15692 (1998) and WO 98/02151). […] CXCR3.L1/2 cells were pelleted by centrifugation and stored at −80° C. […] The total protein concentration was determined using a coomassie blue staining protein concentration assay kit (BioRad). […]
Entries and their % inhibition at 10 μmol/L values follow.

| SMILES ENTRY | MEASUREMENT TARGET | % inhibition at 10 μmol/L [%] |
| --- | --- | --- |
| CCN(CCN1CCN(Cc2cccc3ccccc23)C1=C(C#N)C#N)Cc1ccc(CN2CCCCC2)cc1 | CXCR3 (Homo sapiens, UniProt P49682) | 96 |
| N#CC(C#N)=C1N(CCN(Cc2cccc(CN3CCCCC3)c2)C(=O)c2cccs2)CCN1Cc1cccc2ccccc12 | CXCR3 (Homo sapiens, UniProt P49682) | 71 |
| CCCNCc1ccc(CN(CC)CCN2CCN(Cc3cccc4ccccc34)C2=C(C#N)C#N)cc1 | CXCR3 (Homo sapiens, UniProt P49682) | 100 |
| CN(CCN1CCN(Cc2cccc3ccccc23)C1=C(C#N)C#N)Cc1ccc(CN2CCCCC2)cc1 | CXCR3 (Homo sapiens, UniProt P49682) | 99 |
